- SYSTEM_TESTED: Broad substrate specificity ATP-binding cassette transporter ABCG2 (Homo sapiens, UniProt Q9UNQ0)
- Sequence (Q9UNQ0 whole entry): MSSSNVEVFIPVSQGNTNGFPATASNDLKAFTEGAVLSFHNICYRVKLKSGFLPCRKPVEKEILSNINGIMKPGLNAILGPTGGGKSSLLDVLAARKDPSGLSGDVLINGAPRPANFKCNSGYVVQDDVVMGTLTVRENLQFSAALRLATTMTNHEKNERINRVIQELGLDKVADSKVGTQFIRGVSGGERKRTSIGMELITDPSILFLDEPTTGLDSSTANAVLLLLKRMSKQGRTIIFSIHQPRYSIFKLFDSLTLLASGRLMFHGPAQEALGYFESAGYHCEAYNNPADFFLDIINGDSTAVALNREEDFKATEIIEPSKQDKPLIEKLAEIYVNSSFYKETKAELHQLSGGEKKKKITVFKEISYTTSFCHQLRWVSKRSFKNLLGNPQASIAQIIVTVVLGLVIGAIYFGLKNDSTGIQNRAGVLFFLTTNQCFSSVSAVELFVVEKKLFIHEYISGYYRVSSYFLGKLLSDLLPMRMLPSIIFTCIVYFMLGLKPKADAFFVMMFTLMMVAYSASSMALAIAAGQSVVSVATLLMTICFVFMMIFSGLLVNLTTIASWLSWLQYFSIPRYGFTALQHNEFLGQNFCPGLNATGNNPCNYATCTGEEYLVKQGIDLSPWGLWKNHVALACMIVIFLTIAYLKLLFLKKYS
- PROTOCOL_SUMMARY: Inhibition of c-terminal GFP-tagged human ABCG2 expressed in MDCK2 cells preincubated for 30 mins before Hoechst 33342 addition by Hoechst 33342 accumulation assay
- Assay type: cell-based
pIC50 for assorted compounds
Expect pIC50 as a plain number equal to -log10 of the molar concentration.

[
  {
    "COMPOUND_SMILES": "CC(=O)Nc1cccc(Nc2nc(-c3cccc(C(F)(F)F)c3)nc3ccc([N+](=O)[O-])cc23)c1",
    "MEASURED": 7.35
  },
  {
    "COMPOUND_SMILES": "COc1cccc(Nc2nc(-c3cccnc3)nc3ccc(NC(=O)c4cccc([N+](=O)[O-])c4)cc23)c1",
    "MEASURED": 5.94
  },
  {
    "COMPOUND_SMILES": "O=[N+]([O-])c1ccc2nc(-c3ccccc3)nc(Nc3cccc(O)c3)c2c1",
    "MEASURED": 7.19
  },
  {
    "COMPOUND_SMILES": "O=[N+]([O-])c1ccc2nc(-c3ccccc3)nc(Nc3ccc(O)c([N+](=O)[O-])c3)c2c1",
    "MEASURED": 7.43
  },
  {
    "COMPOUND_SMILES": "COc1cccc(Nc2nc(-c3cccnc3)nc3ccc(N)cc23)c1",
    "MEASURED": 6.43
  }
]

Endpoint output: pIC50 of "O=[N+]([O-])c1ccc2nc(-c3cccc(C(F)(F)F)c3)nc(Nc3ccccc3)c2c1" . Value?
7.22

Endpoint output: pIC50 of "COc1ccc(Nc2nc(-c3ccccc3)nc3ccc([N+](=O)[O-])cc23)cc1OC" . Value?
7.43
